Measured values drawn from PubChem BioAssay (NCI) for this set.

Please provide measured TGI for the entries that follow.
- Test system: SN12C renal
- Experiment: NCI tumour cell line growth inhibition, 48 h

Chem Smiles: CCOC(=O)Cn1c(=O)[nH]c(=O)c2[nH]cnc21
TGI: > 100 µM
//
Chem Smiles: CN1c2ccccc2S(=O)(=O)n2c(COc3ccccc3)nnc21
TGI: > 100 µM
//
Chem Smiles: Cn1cc(-c2ccc3nnc(C(F)(F)c4ccc5ncccc5c4)n3n2)cn1
TGI: > 100 µM
//
Chem Smiles: O=C1c2ccccc2-c2ccccc2C1(Cl)Cl
TGI: 2.98 µM

Please state, for each entry, its recorded TGI.
1. CC(=O)Nc1ccc(C(=O)n2[nH]c(C)c(/C=C3\C(=O)C=Cc4ccccc43)c2=O)cc1
2. COc1ccc(NC(=O)C2=CC(=O)c3ccc(O)cc3C2=O)c(OC)c1

result:
1. > 100 µM
2. > 100 µM
